Tested on: Saccharomyces cerevisiae
Assay: protein stability index of tFT-peptide fusion (C-terminal peptide) (PSI (0-1 scale)); higher = more stable (slower turnover);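 also: PSI is a weighted mean of sequencing reads over stability bins, variants kept only with over 10 reads, mCherry proximal and sfGFP distal, peptide attached via GGGS linker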
Details: genetic background: wild type; temperature: 30 C
experimental readout: protein stability index
One number for each entry.

Some sequences with recorded protein stability index:
1. DVYDLGLPINMS: 0.698
2. CRRRNRLLLFRK: 0.697
3. FPLSPPAPPLTP: 0.702

Give protein stability index for each of the items listed below.
1. GGGRGGARVGQL
2. VGGFCSWVVAWF
3. ALRVSGAYREHS
4. PHPLPSHPLPPP

1: 0.661; 2: 0.717; 3: 0.735; 4: 0.738

====

Test system: Saccharomyces cerevisiae
Experiment: protein stability index of tFT-peptide fusion (C-terminal peptide) (PSI (0-1 scale)); higher = more stable (slower turnover)
Conditions: genetic background: wild type; temperature: 30 C
experimental readout: protein stability index
Answers are plain numbers.

1. LSSGPARVMVVL: 0.608
2. PPPSSLVPFPLP: 0.729
3. GGGGAGGGAGGG: 0.616
4. VVAVTTIDSTHL: 0.682
5. MWQSRSAYFGSN: 0.692
6. SPPTPPLAPLSP: 0.656
7. VTLWGFFRVLSL: 0.686
8. ASPSKVSGLNID: 0.785

Give protein stability index for each of the items listed below.
1. VCVAVVGGGCRG
2. YFLLLLLNSSTP
3. RGYSGSLSVVIY

[0.573, 0.528, 0.657]

Give protein stability index for each of the items listed below.
1. AASGCGRPGCSA
2. SKIKLYKIKKKK
3. PPPSPHRLDHLT
4. SSPDLGPVCVPC
5. VGFGVRTGETVV

1. 0.663
2. 0.721
3. 0.704
4. 0.647
5. 0.685

Give protein stability index for each of the items listed below.
1. KKKEKKNIHSKT
2. APPPRPPPPPQL
3. LSLVYFAALFSF

[0.646, 0.67, 0.471]

====

Assign protein stability index to each entry below.
Tested on: Saccharomyces cerevisiae
Experiment: protein stability index of tFT-peptide fusion (C-terminal peptide) (PSI (0-1 scale)); higher = more stable (slower turnover)
Conditions: genetic background: wild type; temperature: 37 C
Answers are plain numbers.

1) RWRLWGGWWVVG: 0.419

Give protein stability index for each of the items listed below.
1. SPSFLVIFTMLL
2. FLCLFFLAVIKL
3. VVSLGGWCLYIY
4. WFLFVLCAWGFF
5. YILLRWVNLSCL
6. VVCLCEYRLHIF
7. NECLSSKWLRIC

[0.596, 0.356, 0.416, 0.304, 0.283, 0.0928, 0.147]

Give protein stability index for each of the items listed below.
1. GKKKREWKKNRI
2. LCFGMVELMWIY

1: 0.552; 2: 0.471

====

Assign protein stability index to each entry below.
Tested on: Saccharomyces cerevisiae
Assay: protein stability index of tFT-peptide fusion (C-terminal peptide) (PSI (0-1 scale)); higher = more stable (slower turnover)
Conditions: genetic background: wild type; temperature: 30 C
Give bare numbers.

Some sequences with recorded protein stability index:
1) SGCWGRRLWFFN: 0.325
2) EWGLGEIVVKVA: 0.259
3) RLSARRSVGGSA: 0.71

Give protein stability index for each of the items listed below.
1. QARSLVRSLCYP
2. PPRSPHLPRSSL
3. PQNTNNPENGHC
4. GGSWVRCLRTMG
5. STVSRHPSSPLP

1: 0.677; 2: 0.664; 3: 0.667; 4: 0.312; 5: 0.737

Give protein stability index for each of the items listed below.
1. EGDACCGVDGKR
2. GSSMLFIEQEVE
3. FSSFVLLFFSFP
4. PPAPPHLPPLPR
5. GYATVILYPSID

0.663
0.683
0.541
0.716
0.653
